TARGET ENTITY: T1, NativeRPtag(large)_with_Tags_and_Cys (Thermoanaerobacter tengcongensis)
T1 construct: Unlabeled in anisotropy assays; coupled through the engineered N-terminal Cys to SulfoLink agarose or maleimide plates in column, pull-down and ELISA assays
T1 chain: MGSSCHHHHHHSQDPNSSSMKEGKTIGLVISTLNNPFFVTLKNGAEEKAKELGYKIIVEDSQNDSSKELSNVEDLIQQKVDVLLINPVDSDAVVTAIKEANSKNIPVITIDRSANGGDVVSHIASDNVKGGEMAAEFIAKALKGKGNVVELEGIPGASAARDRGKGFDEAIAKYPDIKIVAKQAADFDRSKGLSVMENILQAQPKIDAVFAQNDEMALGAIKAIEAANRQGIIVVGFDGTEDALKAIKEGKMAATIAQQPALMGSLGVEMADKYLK
ASSAY EXPLANATION: fluorescence anisotropy; NH4SO4 (3M)
No end group written: not given here. *: point of attachment. RhodamineB = CCN(CC)c1ccc2c(-c3ccccc3C(=O)*)c3ccc(=[N+](CC)CC)cc-3oc2c1

>  <BINDER>
RhodamineB-KIANFIPAELKLITKANVQ (also: also used unlabeled as competitor, Rhodamine labeled in the Kd assays; also called RPtag(small) (tight)) [RPtag(small) Nd2, p5a, e18a]

>  <Kd / nM>
44

$$$$
>  <BINDER>
RhodamineB-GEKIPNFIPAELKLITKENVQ (Synthetic peptide) [native RPtag(small)]

>  <Kd / nM>
1.5

$$$$
